B1: tRNA (parent)
chain: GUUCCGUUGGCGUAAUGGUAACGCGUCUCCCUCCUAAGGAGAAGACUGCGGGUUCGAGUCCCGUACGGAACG

Variants of: B1
EXPERIMENTAL DETAILS: yeast fitness relative to wild type (ratio to wild type); higher = fitter; tRNA-Arg(CCU), competitive growth, 37 C, YPD
Variants at the floor of the assay were thinned out.
Please respond with reported yeast fitness for every item in the list.
// no unit, no text: just the number

Fill in yeast fitness for record U7G U8C A70U
0.588

Give yeast fitness for G10C C29A C33A C62U
0.6

Identify measured yeast fitness corresponding to A20U G44C A45G
0.596

Complete the entry with yeast fitness for C11G U13G
0.599
